Biological target: T1, hANGPTL4(26-406)-His (Homo sapiens, UniProt Q9BY76)
T1 construct: purchased R&D Systems
T1 sequence (Q9BY76 26-406): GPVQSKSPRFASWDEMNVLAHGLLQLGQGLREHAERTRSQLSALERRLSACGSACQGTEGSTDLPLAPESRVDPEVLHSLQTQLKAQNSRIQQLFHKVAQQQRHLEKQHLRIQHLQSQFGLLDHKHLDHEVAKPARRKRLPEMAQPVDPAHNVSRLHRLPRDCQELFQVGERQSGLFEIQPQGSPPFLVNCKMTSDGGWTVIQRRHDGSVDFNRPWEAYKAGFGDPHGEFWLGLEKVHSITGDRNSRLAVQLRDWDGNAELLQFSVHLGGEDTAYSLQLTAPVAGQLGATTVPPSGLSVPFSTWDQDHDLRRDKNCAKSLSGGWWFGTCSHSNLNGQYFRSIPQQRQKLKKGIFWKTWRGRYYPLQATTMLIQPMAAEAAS
Experiment: BIACORE, full mAb or Fab over amino-coupled hANGPTL4(26-406)-His
Type: binding
Conditions: pH 5.75, 25° C.
property name: kd (s⁻¹)
Numbers only, in s⁻¹.

Quick note, kd for H1H284P Fab: Fab fragment of H1H284P prepared by papain digestion (antibody, V domains shown) VH: QVQLVESGGGVVQPGRSLRLSCAASGFTFSSYGMHWVRQAPGKGLEWMAVISFDGGNKNNADSVKGRFTISRDNSKNTLYLQMNSLRAEDTAVYYCAKEGDRSGHPYFYYYGLDVWGQGTTVTVS VL: DIQLTQSPSFLSASVGDRVTITCWASQGISSYLAWYQQKPGKAPKLLIYAASTLQSGVPSRFSGSGSETEFTLTISSLQPEDFATYYCQQLHSYPLTFGGGTKVEIK landed at 0.00173
